target: human BACE-1 (Homo sapiens); assay: In Vitro BACE Assay run by CEREP (Example 19); settings: recombinant enzyme, pH 4.5
pIC50: −log10 of the molar value.
measured parameter: pIC50

The cases that follow already have their pIC50 on record.
CC(C)(C)c1cc(CC(c2cc3cc(Oc4ccccc4)ccc3nc2N)C2CCOCC2)on1 (centres unmarked) [compound 152]	6.25
COc1cc2nc(N)c(C(CCC(=O)N(CCN3CCOCC3)C3CCCCC3)C3CCOCC3)cc2cc1Oc1ccccc1 (centres unmarked) [compound 107]	6.44
CC(C)(C)CCNC(=O)CC[C@H](c1cc2cc(Oc3ccccc3)ccc2nc1N)C1CCOCC1 [compound 79]	6.54
CCOC(=O)C(COCc1ccccc1)NCCCC(c1cc2cc(Oc3ccccc3)ccc2nc1N)C1CCOCC1 (centres unmarked) [compound 89]	6.16
COc1cc2nc(N)c(C(CCCN(CCN3CCOCC3)C3CCCCC3)C3CCOCC3)cc2cc1Oc1ccccc1 (centres unmarked) [compound 108]	6.44
Cn1ccnc1CN(CCCC(c1cc2cc(Oc3ccccc3)ccc2nc1N)C1CCOCC1)C1CCCCC1 (centres unmarked) [compound 94]	7.09

P: CC(C)(C)CCNC(=O)CCC[C@H](c1cc2cc(Oc3ccccc3)ccc2nc1N)C1CCOCC1 [compound 82]
Q: Nc1nc2ccc(Oc3ccccc3)cc2cc1[C@@H](CCC(=O)NCC1CC1)C1CCOCC1 [compound 78]
Response body: label of entry with the larger pIC50; valid values P , Q . Kindly state the label of the option you pick.
P
(P: 6.68, Q: 6.47)

a: CCOc1cc2nc(N)c(C(CCC(=O)NCCC(C)(C)C)C3CCOCC3)cc2cc1Oc1ccccc1 (centres unmarked) [compound 102]
b: Nc1nc2ccc(Oc3ccccc3)cc2cc1C(CCc1cn(C23CC4CC(CC(C4)C2)C3)nn1)C1CCOCC1 (centres unmarked) [compound 155]
// compare measured pIC50 between a and b ; output the lower one Kindly state the label of the option you pick.
b

----------
target: human BACE-1 (Homo sapiens, UniProt P56817); test: In Vitro BACE Assay run by CEREP (Example 19); conditions: recombinant enzyme, pH 4.5
Sequence (P56817 46-501): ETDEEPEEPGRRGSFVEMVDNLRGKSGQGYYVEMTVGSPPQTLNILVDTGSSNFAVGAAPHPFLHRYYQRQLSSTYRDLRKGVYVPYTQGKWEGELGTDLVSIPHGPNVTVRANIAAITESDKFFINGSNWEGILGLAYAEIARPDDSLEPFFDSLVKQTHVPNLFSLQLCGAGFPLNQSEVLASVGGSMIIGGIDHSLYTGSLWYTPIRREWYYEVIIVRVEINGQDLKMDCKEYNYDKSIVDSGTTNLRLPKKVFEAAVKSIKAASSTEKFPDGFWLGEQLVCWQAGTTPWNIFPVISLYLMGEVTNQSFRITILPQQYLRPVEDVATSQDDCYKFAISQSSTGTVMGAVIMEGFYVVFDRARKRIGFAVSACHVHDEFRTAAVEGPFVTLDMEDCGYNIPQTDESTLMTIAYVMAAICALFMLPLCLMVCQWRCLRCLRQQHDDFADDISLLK
measured parameter: IC50 (nM)

CN(CCC[C@H](c1cc2cc(Oc3ccccc3)ccc2nc1N)C1CCOCC1)CC1CCCCC1 [compound 85]	340
Cn1ccnc1CN(CCC(C)(C)C)C(=O)CCCC(c1cc2cc(Oc3ccccc3)ccc2nc1N)C1CCOCC1 (stereo not shown) [compound 87]	260
CC(C)(C)Cc1cc(CC(c2cc3cc(Oc4ccccc4)ccc3nc2N)C2CCOCC2)on1 (stereo not shown) [compound 151]	310
COc1cc2nc(N)c(C(CCC(=O)N(C)C3CCCCC3)C3CCOCC3)cc2cc1Oc1ccccc1 (stereo not shown) [compound 101]	290

The reported measurements were obtained from patent US7868022B2.
